Tested on: MS2 coat protein
assay: apparent KD of MS2 coat protein; higher = weaker reporter binding
reportedConditions: Eterna round: R107; input ligand: tryptophan 2.4 mM
measurementType: apparent KD of MS2 coat protein (nM)

residues	measurementType	readoutValue
GGACAACAUGAGGAUCACCCAUGUCCUGAUACCAGUCAGCGCAGUGACCCUUGGCAGCAGACGGAUACGAAAUAACUGAGAGAUA [theeternabot_sameState_MS2_Theo_A_44]	apparent KD of MS2 coat protein	62
GCUACAUGAGGAUCACCCAUGUGUACUGAAGGAGCGGCGAAAACGCCAGGUAGGUCGCAGUAUGUGGCUCUGGGCACGAGAUGGC [#02 Same State - Arginine A]	apparent KD of MS2 coat protein	30.5
UAUAUAUAUAUUGAUACCAGCAGAGAAAACGUUUAUCCUAACAUGAGGAUCACCCAUGUAUGCCCUUGGCAGCGGUAUAUAUAUA [8.D]	apparent KD of MS2 coat protein	22.6
GGACUAACCAGAAGGAGCGACACAGCAGAAACUGCAAAUCCUCCGCACGAGGAUCACCCGUGUCAGGUAGGUCGCUGGUUAGUCG [ArgBX 28]	apparent KD of MS2 coat protein	42.7
AACAUGAGGACGGAUACCAGUCACAUGAGGAUCACCCAUGUACAUGAGGAUCACCCAUGUGGCCCUUGGCAGCCGCAUGUGAUCA [Exclusion Theophylline B 4]	apparent KD of MS2 coat protein	412
GGUCUCGAGGGCGAUACCAGCUUGAUCGUACUGGCCUGGUACAUGAGGAUCACCCAUGUAAGCCCUUGGCAGCGCGCUCGAGACC [#1 Exclusion - Theophylline B Attempt #6 (HarryS)]	apparent KD of MS2 coat protein	17
UGUUUGGUGCGCGAGUGUUGGAUAAUUGAUACCAGUGUAGAUGUGCGCCCUUGGCAGCGAAUCCGAACAUGAGGAUCACCCAUGU [5.Z]	apparent KD of MS2 coat protein	29.5
UUUAUUUAUUUAUUUAUUUAUUUAACAGAAGGAGCGUGGAUUAACACAGGUAGGUCGCUGACAUGAGGAUCACCCAUGUAUUAUU [SSAA #1]	apparent KD of MS2 coat protein	35.8
AAACGUUGCUGCGAUACCAGACAUGAGGAUCACCCAUGUACCAAGGUAAGAAAAUAACAUGUCCCUUGGCAGCGCAGCAACGAAA [MAT - Exclusion Theophlline B - Mod of Eli - D3]	apparent KD of MS2 coat protein	15.6
AAACAACAUGAGGAUCACCCAUGUACCGAUACCAGCCAAAUAUAAGGCCCUUGGCAGCGGAGUAAAUCCGGAGGACAAUGGGUAA [Same State Theophylline A GF5]	apparent KD of MS2 coat protein	28.3
UACAUGAGGAUCACCCAUGUAUGAAUAGAUACCAGAUAAAAUAAGGUCCCUUGGCAGCUAGUGAAUCGAGGGUGGGUAUCAUGAU [#12 Exclusion-TheophyllineA]	apparent KD of MS2 coat protein	9.93
GUCCUCAGCCGAAGGAGCGCUAGAAGGUGACAUGAGGAUCACCCAUGUGUGUGAUGUGGCUAGCAGGUAGGUCGCGGAGAGGAUU [Exclusion - Arginine B (Freestyle 17)]	apparent KD of MS2 coat protein	78.8
ACCUGUACGAAAAGUGCAGGACACGGAAUACGAGGACCGGUACGGCCGCCACUCGGAUAAAACCUGAGGAUCACCCUGGUCCGUG [TrypAS 14 #AlternativeMS2 #Zipper #StaticStem]	apparent KD of MS2 coat protein	22.6
UGUACCAUGUCGGCCGCCACUCAUGAUAAAUAUGAGGAUCACCCAUAUAGCGUCAAAGACGCUAUGAGGACCGGGACAUGGUACU [TryBS Zipper 2]	apparent KD of MS2 coat protein	14
UUAAUCUUGGUUGAAAACAAUUAAGCAGAAGGAGCGUGAUAAAACACAGGUAGGUCGCUGAAGGGAACAUGAGGAUCACCCAUGU [AstrosSSArgA#14]	apparent KD of MS2 coat protein	25.6
GUAAAGUAAAGAAGGAGCGUCGAAAAUGGGUAAACAUGAGGAUCACCCAUGUAAAGGGAACGACAGGUAGGUCGCUUUAUUUUAC [AstromonsSSArgB#17]	apparent KD of MS2 coat protein	189
UGACAUUGCUCAGAUACCAGACAGGAGGAUCACUCCUGUGCCAACAAGUACAAAAUAAAUGUCCCUUGGCAGCUGAGCAAUGUCU [TheoBX 25 #MS2Left #AlternativeMS2 #Theo22]	apparent KD of MS2 coat protein	49
AGUGUUAUAACUGAUACCAGACUCUCAUGUUUACAUGAGGAUCACCCAUGUUAUUUCUUUGUCCCUUGGCAGCAGAAUUUACACA [JR_SSTheophyB_Sub009]	apparent KD of MS2 coat protein	343
GGAUAGGACAGAAGGAGCGGCAUGGCAGAAACUGCAAUCCUCCUACACGAGGAUCACCCGUGUCAGGUAGGUCGCUGUCCUAUCG [ArgXB 13 #Zipper #MS2Left #StaticStem #Blueprint]	apparent KD of MS2 coat protein	15
GGCGGACUUAUAGAUACCAGCACAUGAGGAUCACCCAUGUUUGGUCGCACCUCAGUCCUGUGCCCUUGGCAGCUAUGAUAGAUUU [Leaatge]	apparent KD of MS2 coat protein	16.1
CUCAUCCACGCGGCCGCCACUAUAUUGUGGUGUGGGUGUGACGUAUUACAUGAGGAUCACCCAUGUAGGACCGGGCGUGGAUGAG [Stork]	apparent KD of MS2 coat protein	534
ACAUGAGGAUCACCCAUGUGGCGUCUUGAUACCAGACGAGAAGUAGUCCCUUGGCAGCAAAUACAUGAGGAUCACCCAUGUAGGA [cccmullin]	apparent KD of MS2 coat protein	24.3
